Entry source: ChEMBL document CHEMBL5058577

tested on: HEK-293T; assay: Multiplex assay against HEK293T; assay type: toxicity, cell-based; details: human, 24 h, 1 µM, compound concentration 1 uM, replicate 1
Each record is given Met if its reported Population Tubulin-Different-Phenotype (%) is strictly below 20%. Records at or above 20% are given Not met.

{"compound": "CN[C@@H](C)C(=O)N[C@H](C(=O)N1CCC[C@H]1C(=O)Nc1snnc1-c1ccccc1)C1CCCCC1", "groupLabel": "Not met"}

Dear reviewer, please state whether CCCCC1=NC2(CCCC2)C(=O)N1Cc1ccc(-c2ccccc2-c2nnn[nH]2)cc1 has Population Tubulin-Different-Phenotype (%) strictly beneath 20%.
Met

Dear reviewer, please state whether Cl.NCCc1ccc(O)c(O)c1 [DOPAMINE HYDROCHLORIDE] has Population Tubulin-Different-Phenotype (%) strictly beneath 20%.
Met

Dear reviewer, please state whether Cc1onc(-c2ccccc2Cl)c1C(=O)N(C)c1ccc(Cl)cc1 has Population Tubulin-Different-Phenotype (%) strictly beneath 20%.
Met

Dear reviewer, please state whether CC[C@@H](C)Nc1nc(C)nc2c(-c3ccc(OC)nc3C)c(C)nn12 has Population Tubulin-Different-Phenotype (%) strictly beneath 20%.
Not met

Dear reviewer, please state whether CC(C)(C)c1cc(NC(=O)Nc2ccc(-c3cn4c(n3)sc3cc(OCCN5CCOCC5)ccc34)cc2)no1 has Population Tubulin-Different-Phenotype (%) strictly beneath 20%.
Not met

---

tested on: Fibroblast; assay: Multiplex assay against human fibroblast; assay type: toxicity, cell-based; settings: 48 h, 10 µM, compound concentration 10 uM, replicate 1
Each record is given class 1 if its reported Population Mitochondria Different-Phenotype (%) is strictly below 3%. Records at or above 3% are given class 0.

Dear reviewer, please state whether NCCc1cn(S(=O)(=O)c2c(Cl)nc3sccn23)c2ccccc12.O=C(O)C(=O)O has Population Mitochondria Different-Phenotype (%) strictly beneath 3%.
class 0

Dear reviewer, please state whether O=C(CCCc1ccccc1)Nc1nc2ccccc2c(=O)s1 has Population Mitochondria Different-Phenotype (%) strictly beneath 3%.
class 1

Dear reviewer, please state whether Br.CS(=O)(=O)Nc1c(O)ccc2c1CCCC2C1=NCCN1 (centres undefined) has Population Mitochondria Different-Phenotype (%) strictly beneath 3%.
class 1

Dear reviewer, please state whether N#Cc1cc(F)cc(-c2nc(-c3ccc(F)cn3)no2)c1 has Population Mitochondria Different-Phenotype (%) strictly beneath 3%.
class 0

Dear reviewer, please state whether Cc1cnc(-c2cc(N3CCN(C(=O)CCS(C)(=O)=O)CC3)ncc2Cl)c(C)c1 has Population Mitochondria Different-Phenotype (%) strictly beneath 3%.
class 0

Dear reviewer, please state whether CCCCCC(O)/C=C/[C@H]1C(=O)CC(O)C1C/C=C\CCCC(=O)O (some centres undefined) has Population Mitochondria Different-Phenotype (%) strictly beneath 3%.
class 1

Dear reviewer, please state whether CC[C@@H](C)Nc1nc(C)nc2c(-c3ccc(OC)nc3C)c(C)nn12 has Population Mitochondria Different-Phenotype (%) strictly beneath 3%.
class 0

Dear reviewer, please state whether CN[C@@H](C)C(=O)N[C@H](C(=O)N1CCC[C@H]1C(=O)Nc1snnc1-c1ccccc1)C1CCCCC1 has Population Mitochondria Different-Phenotype (%) strictly beneath 3%.
class 0

Dear reviewer, please state whether Cc1sc2c(c1C)C(c1ccc(Cl)cc1)=N[C@@H](CC(=O)NCCCCCCCCNC(=O)COc1cccc3c1C(=O)N(C1CCC(=O)NC1=O)C3=O)c1nnc(C)n1-2 (some centres undefined) has Population Mitochondria Different-Phenotype (%) strictly beneath 3%.
class 0

Dear reviewer, please state whether CCCCC(=O)N(Cc1ccc(-c2ccccc2-c2nnn[nH]2)cc1)[C@H](C(=O)O)C(C)C has Population Mitochondria Different-Phenotype (%) strictly beneath 3%.
class 0

Dear reviewer, please state whether Cl.NCCc1ccc(O)c(O)c1 [DOPAMINE HYDROCHLORIDE] has Population Mitochondria Different-Phenotype (%) strictly beneath 3%.
class 0

Dear reviewer, please state whether COc1cccc2c1c(NS(=O)(=O)c1ccc(Cl)s1)nn2Cc1cccc(CNC(=O)C(C)(C)O)c1 has Population Mitochondria Different-Phenotype (%) strictly beneath 3%.
class 0

Dear reviewer, please state whether CN(C)C(=O)Cn1cc(-c2ccc(-c3cncc4ccccc34)cc2)cn1 has Population Mitochondria Different-Phenotype (%) strictly beneath 3%.
class 0

Dear reviewer, please state whether CC(C)COc1ccc(CNC(=O)N(Cc2ccc(F)cc2)C2CCN(C)CC2)cc1 has Population Mitochondria Different-Phenotype (%) strictly beneath 3%.
class 0

Dear reviewer, please state whether CC(/C=C1\SC(=S)N(CCCC(=O)Nc2ccc(C(=O)O)c(O)c2)C1=O)=C\c1ccccc1 has Population Mitochondria Different-Phenotype (%) strictly beneath 3%.
class 1

Dear reviewer, please state whether CC(=O)Nc1cccc2c1c(Sc1ccc(Cl)cc1)c(C)n2CC(=O)O has Population Mitochondria Different-Phenotype (%) strictly beneath 3%.
class 1

Dear reviewer, please state whether C[C@H](N)COC(=O)[C@@H](CCCCN)NC(=O)Cc1c(-c2ccc3ccccc3c2)[nH]c2c1ccc1ccccc12 has Population Mitochondria Different-Phenotype (%) strictly beneath 3%.
class 0
